# assay.remarks: Displacement of [3H]Ro151788 from GABA-A receptor in Wistar rat cerebellar membrane after 1 hr by liquid scintillation counting
# Assay type: cell membranes, Cerebellum
In this section we review reported pKi values for a set of molecules.
pKi here is simply -log10 of the concentration when that concentration is written in mol/L.

Guide cases for pKi, answers given:
| smiles.repr | pKi |
| --- | --- |
| O=C(NCCF)c1c[nH]c2ccc(Cc3ccccc3)cc2c1=O | 9.15 |
| CCc1ccc2[nH]cc(C(=O)NCCF)c(=O)c2c1 | 8.44 |
| O=C(NCCCF)c1c[nH]c2ccc(Br)cc2c1=O | 8.89 |

Briefly, pKi measured for O=C(NCCCF)c1c[nH]c2ccc(Cc3ccccc3)cc2c1=O : 9.89
